- target-or-test-system: UniProt E2DI02
- assay-text: biochemical
measurement-label: pKd
Scale: negative log10 of molar concentration, which is what pKd denotes.

Tell me its pKd on UniProt E2DI02: CC(=O)O [Ac, acetate]
1.76

----------
- target-or-test-system: chlorite dismutase (AoCld) (Azospira oryzae, UniProt E2DI02)
- Sequence (E2DI02 35-282): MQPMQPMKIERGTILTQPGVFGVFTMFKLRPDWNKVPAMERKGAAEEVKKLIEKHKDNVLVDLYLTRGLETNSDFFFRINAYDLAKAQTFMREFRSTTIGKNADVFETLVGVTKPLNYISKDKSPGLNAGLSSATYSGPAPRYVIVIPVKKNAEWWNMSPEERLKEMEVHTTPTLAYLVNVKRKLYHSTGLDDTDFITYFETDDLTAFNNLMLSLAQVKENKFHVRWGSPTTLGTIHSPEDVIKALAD
- assay-text: UV-visible equilibrium binding titration (Soret band), pH […]; EPR low-spin adduct
- Design: recombinant, N-terminal His6 tag
measurement-label: pKd
# reply with the number alone; pKd is -log10 of concentration in mol/L

Return the recorded pKd value; entry: c1c[nH]cn1 [Im, imidazole]
4.98
